Assay: NCI Yeast Anticancer Drug Screen. Data for the mec2-1 strain (AID 157)
Conditions: S. cerevisiae mec2-1 strain, at 5.0 µM (retest, dose inferred, filed as 0.5), stronger effect = higher value
Method: Growth inhibition of yeast strains with defined genetic alterations is measured as a screen for potential anti-cancer activity. Selected strains with alterations in DNA damage repair or cell cycle control were exposed to compounds and growth inhibition was measured relative to vehicle treated controls. The strain used in this assay is mec2-1
About 79,000 compounds went through this panel and 15% of them were active in at least one assay; those are over-represented in the sample as a whole. The source made the active and inactive calls. Cut-off read from the data, not from the text of the source: active = growth inhibition above about 70%; inactive = the rest.
Exercise: for every item that follows, state its recorded growth inhibition.

Fill in the blank: the reported growth inhibition of BrCC(Br)Cc1ccc2c(c1)OCO2 (centres undefined) is ____. 2% (inactive)

Returns the measured growth inhibition for the input molecule. Input: "CCC(CC)C1(C(=O)OCCN(CC)CC)CCCCC1" -1% (inactive)

// returns reported growth inhibition for input "COc1cc(/C=N/NC(=S)Nc2ccccc2)ccc1O" -10% (inactive)

May I ask what growth inhibition has been recorded for "CN(C)c1ccc(/C=C/c2nc3ccccc3[nH]2)cc1" ? -9% (inactive)

Name the reported growth inhibition value associated with the molecule "Oc1ccccc1/C=N\N=C\c1ccccc1O" -10% (inactive)

Request the reported growth inhibition associated with CCOC(=O)C(NC(C)=O)[CH](c1ccc(OC)cc1)[Sn]([c]1ccccc1)([c]1ccccc1)[c]1ccccc1 (centres undefined) 99% (active)

Bench note: what growth inhibition did "Fc1ccc(CN2COc3c(ccc4cccnc34)C2)cc1" show? -2% (inactive)

Give the measured growth inhibition of "O=Cc1cc([N+](=O)[O-])ccc1O" . 98% (active)

Entry "COc1ccc(CSC(=S)Nc2ccc(SC)c(Cl)c2)cc1" : reported growth inhibition = ? 23% (inactive)

Using the record for CC12C=CC(=O)C=C1CCC1C3CCC(O)(C(=O)CO)C3(C)CC(O)C12F (centres undefined) , report its growth inhibition. 4% (inactive)

Field request: growth inhibition | item: COc1ccc(C(=O)C2Cc3c(ccc4ccccc34)OC2=O)cc1 (centres undefined) -2% (inactive)

Could you tell me which growth inhibition is on file for "O=C(Cc1csc2[n+]1C(=O)/C(=C/c1cccc([N+](=O)[O-])c1)S2)Nc1ccccc1" ? -16% (inactive)

Look up growth inhibition: COc1ccc(C2c3cc4c(cc3OC(O)C2C)OCO4)cc1 (centres undefined) -6% (inactive)

Requested field: growth inhibition. Item: "[O-][n+]1c2c(cc3ccccc31)Cc1ccccc1-2" 3% (inactive)

Which value of growth inhibition has been reported for "CCOC(=O)CSc1c(C(=O)OCC)c(=O)n(-c2ccccc2)c(=S)n1-c1ccccc1" in the records? 44% (inactive)

What value of growth inhibition has been recorded for this entry: "CC(C)N1C(=O)C=CC1=O" 7% (inactive)

State the recorded growth inhibition for this entry: "CCOC(=O)Cc1csc2[n+]1C(=O)/C(=C/c1ccc(OC)c(OC)c1)S2" -14% (inactive)

Which growth inhibition is listed for O=C(O)C(c1ccccc1)c1ccc(-c2ccccc2)cc1 (centres undefined) ? -2% (inactive)

// growth inhibition lookup, key: "Cn1sc2ccccc2c1=S" -39% (inactive)

Which growth inhibition is listed for "Cc1c(C)c(C[P+](CCP(c2ccccc2)c2ccccc2)(c2ccccc2)c2ccccc2)c(C)c(C)c1C[P+](CCP(c1ccccc1)c1ccccc1)(c1ccccc1)c1ccccc1" ? 11% (inactive)

Query (molecule): "CCN(CC)C(=S)N/N=C(\C)c1cccc(C)n1" ; field requested: growth inhibition 82% (active)

Suppose we examine the molecule "Cc1cc(=Nc2ccc3c(c2)c(N)cc(C)[n+]3C)nc(N)n1C" ; what growth inhibition value has been reported? 78% (active)

Tell me the measured growth inhibition of "CCCCCNC(=O)c1ccc(Cl)c(Cl)c1" , please. 5% (inactive)

Item "O=C1C=CC(=O)N1Cc1ccccc1" has what recorded growth inhibition? 100% (active)

---

assay: NCI Yeast Anticancer Drug Screen. Data for the sgs1 mgt1 strain (AID 161);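 note: 0% = growth of cultures given vehicle only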; settings: S. cerevisiae sgs1 mgt1 strain, at 5.0 µM (retest, dose inferred, filed as 0.5), stronger effect = higher value
Compounds without any hit were thinned out: in the full panel of roughly 79,000, 15% have a hit.
Please provide measured growth inhibition for the entries that follow.
The reply should contain only the number, in %.

May I ask what growth inhibition has been recorded for CCOC1NC(=S)N(C2CCCCC2)C1(C)C (stereo unspecified) ? -1

I would be grateful if you could share the reported growth inhibition for "O=C(O)Cc1cccc(O)c1" . -3

Which growth inhibition is listed for "Cn1c(=O)c2c(ncn2CCCCOc2ccc3c(c2)[n+]([O-])nc(N)[n+]3[O-])n(C)c1=O" ? 5

Find the recorded growth inhibition belonging to "CC(C)(C)C1=CC(=CC=C2C=CN(CCO)C=C2)C=C(C(C)(C)C)C1=O" and report it. -3

Fill in the blank: the reported growth inhibition of "Cc1ccccc1N=Nc1sc(N)nc1-c1ccccc1" is ____. -2

# input compound: "CC1(C)N=C(N)N=C(N)N1c1cccc(OCc2cccc(N)c2)c1" ; wanted: its growth inhibition -7

Query: growth inhibition; subject: "Cc1cc2c(Br)cc(Br)c(O)c2nc1C(=O)c1ccccc1" 37

So what's the measured growth inhibition for this one? "Clc1ccc(SSc2ccc(Cl)cn2)nc1" 17

Recorded growth inhibition of "Nc1ncnc(N2CCOCC2)c1N" , please. 3

State the recorded growth inhibition for this entry: "COc1cc2c(c(OC)c1OC)-c1ccc(SC)c(=O)cc1[C@@H](NC(=O)Oc1ccccc1)CC2" -9

growth inhibition lookup needed for "O=C(NCCCNCCCCNCCCNC(=O)c1cc(-c2ccccc2)nc2ccccc12)c1cc(-c2ccccc2)nc2ccccc12" , thanks. 34

---

assay: NCI Yeast Anticancer Drug Screen. Data for the sgs1 mgt1 strain (AID 161);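 note: 0% = growth of cultures given vehicle only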; settings: S. cerevisiae sgs1 mgt1 strain, at 50.0 µM, stronger effect = higher value
This is part of a sample that, as a whole, favours compounds with a hit. Of some 79,000 tested, about 15% had one in any assay.
Lab note: compare growth inhibition against 90%. Equal or greater, write true. Smaller, write false.

Does growth inhibition meet or surpass 90% for COc1cccc(C2Nc3ccccc3C(=O)N2N2CCOCC2)c1 (stereo not given) ? false

Identify whether the reported growth inhibition of the following compound is 90% or greater: "COc1cc(C)cc2c(-c3c(O)cc(O)c4c3C[C@H](C)N[C@H]4C)cc(-c3cc(-c4c(O)cc(O)c5c4C[C@H](C)N[C@H]5C)c4cc(C)cc(OC)c4c3O)c(O)c12" false

Given CCS(=O)(=O)C(C(O)C(O)C(O)C(O)CO)S(=O)(=O)CC (stereo not given) , state whether its growth inhibition is at least 90%. false

Tell me whether growth inhibition is at least 90% here: "O=C1C(Cl)=C(Nc2ccc(S(=O)(=O)Nc3ccccn3)cc2)C(=O)c2ccccc21" true

Check the entry c1cc2ccc1C1NCCCN1CCN1CCCNC1c1ccc(cc1)C1NCCCN1CCN1CCCNC21 (stereo not given) : does growth inhibition equal or exceed 90%? false

Does COc1cccc(/C=C2\CCC(CN(C)C)C2=O)c1 (stereo not given) have a reported growth inhibition of at least 90%? true

Is it the case that "COc1ccc(C2=CC(=O)C=CC2=O)cc1" has growth inhibition reaching or exceeding 90%? true

# bool: growth inhibition of "C/C(=N/O)c1ccc2c(c1)C(=NO)c1cc(/C(C)=N/O)ccc1-2" >= 90% true

Item "Cc1cc(C)c(O)c(C(C)(C)C)c1" with growth inhibition of 90% or above? false

---

test: NCI Yeast Anticancer Drug Screen. Data for the mlh1 rad18 strain (AID 175); conditions: S. cerevisiae mlh1 rad18 strain growth inhibition; at 5.0 µM (retest, dose inferred, filed as 0.5)
The panel holds about 79,000 compounds, 15% with a hit somewhere; the sample as a whole holds those more often. Activity calls are given as the source filed them. Rule as the data show it: active = growth inhibition above about 70%; inactive = the rest.
Outcome field: choose from t = active, f = inactive

Answer briefly: the call reported for "CCOC(=O)/C(C#N)=C/c1coc2cc(C)cc(C)c2c1=O" in this assay. f

Tell me the recorded outcome of this test for "O=C(Cc1nc2ccccc2s1)Nc1ccc2ccccc2c1" . f

What classification did "N#CSCCl" end up with in this test? f

Fill in: this test's call for "N#CC1(C#N)C(C#N)(C#N)C12CCCC2" is ___ f

Query: recorded result category for c1ccc(C2CC(c3ccc4ccccc4c3)=Nc3ccccc3S2)cc1 (stereo not given) in this test f

What call does the record list for "O=[N+]([O-])/C=C/c1cc2ccccc2[nH]1" ? f

Just curious, what result did "CSC(C=P(c1ccccc1)(c1ccccc1)c1ccccc1)=Nc1ccccc1" get here? f

Test call for this compound, please: "CCCCN(C)N=Nc1c(C(N)=O)n[nH]c1C(C)C" f

Returns: the outcome recorded for "S=C(SSSSC(=S)N1CCCCC1)N1CCCCC1" in this assay. f

Given O=C1c2c(Br)sc(Br)c2[C@@H](NC(=O)C(F)(F)F)C1Br (stereo not given in full) , state the outcome it received in this test. f

What was the test verdict on "CCCCN(CCCC)S(=O)(=O)c1ccccc1" ? f

Give the logged outcome of this assay for the following compound: "Nc1cc2c(c[n+](CCCBr)c3ccccc23)c2ccccc12" f

Call for entry "CCOC(=O)Nc1c(F)cc(F)cc1F" : f

// outcome(item) with item = "CCOC(=O)/C(C)=N/Nc1cc(Cl)ccc1O" f

Identify the outcome logged in this assay for the compound shown: "CCOC(=O)CC1=NC(=Nc2ccc(Cl)c(Cl)c2)SC1" f

Hi team, can someone confirm the assay call for "Nc1nc(=Nc2ccccc2)ss1" ? f

Identify the outcome logged in this assay for the compound shown: "CSC(SC)(C(=O)O)c1cc(C)no1" f

Outcome? C#CCCOC(=O)CC1=C(C)/C(=C/c2ccc(S(C)=O)cc2)c2ccc(F)cc21 (stereo not given) f

I'd appreciate the recorded outcome for "Cc1cc(CC(O)(C(F)(F)F)C(F)(F)F)cc(CC(O)(C(F)(F)F)C(F)(F)F)n1" from this test. f

Please let me know the test result on file for "Oc1ccc(C2CCCCC2)cc1" . f

Returns: the outcome recorded for CCCCCCCCCCCC(=O)NC(CCC(=O)O)C(=O)O (stereo not given) in this assay. f

Status in this test for "Cc1cccc(C)c1NC(=O)CCc1nnc(N)n1N" ? f

Dear all, I need the recorded test outcome for "Cc1cc(O)c(C(=O)/C=C/c2cccnc2)c(=O)[nH]1" , thank you. f

// outcome(item) with item = "CC(=O)Oc1c2c(c(C)c3ccccc13)C(=O)c1cccnc1C2=O" f

I'd appreciate the recorded outcome for "CSC(SC)C(SC)SC" from this test. f

Please state the recorded outcome for this compound: "N=C1c2ccccc2-c2ccccc21" f

Which outcome was assigned to "O=S1(=O)C(Br)=Cc2ccccc21" in this test? f

# lookup: test call for CCCC(C)OC(=O)Nc1cccc(Cl)c1 (stereo not given) f

Recorded test call requested for CCCCCNC(=O)C1C(=O)N(CCCCC)C(=O)/C1=N\N (stereo not given) f

Status in this test for "c1ccc(CC[n+]2csc3ccccc32)cc1" ? f

What did this assay record as the result for "CC(C)(O)[C@H](CCO)O[Si](c1ccccc1)(c1ccccc1)C(C)(C)C" ? f

Lab log entry: "CCCCC#C[I+]c1ccccc1" — outcome as called in the assay? f

Dear colleague, could you share the recorded outcome for "O=C(/C=C/C(=O)N1CCCC1)N1CCCC1" when you have a moment? f

Tell me the assay call for "COc1ccc(/C(Cl)=C(\C=O)c2ccc(Cl)cc2)cc1OC" please. f

# lookup: test call for "c1ccc(CN2CCC3(CC2)SSC2(CCN(Cc4ccccc4)CC2)S3)cc1" f

Please indicate how the test categorized "CN(C)CCOC(=O)C1(CCC2CCCCC2)CCCCC1" . f

Short answer needed: outcome of this test for COC1CC(OC(=O)c2ccccc2)C(OC(=O)c2ccccc2)C(C)O1 (stereo not given) ? f

So what was the verdict on "COc1ccc(OC)c(C[P+](c2ccccc2)(c2ccccc2)c2ccccc2)c1" in this test? t

Record request — test call for "CCCCCCCCCCCOc1cccc(N2C(N)=NC(N)=NC2(C)C)c1" t

Field: outcome | Entry: CC(c1ccc2ccccc2c1)c1c(F)cccc1C(=O)O (stereo not given) f

Answer briefly: the call reported for "CC(C)(C)CC(=O)O" in this assay. f

Give the logged outcome of this assay for the following compound: "Cc1ccc2ccc3ccc(C)nc3c2n1" t

Called result for "O=[N+]([O-])c1ccccc1Oc1ccc([N+](=O)[O-])c(C(F)(F)F)c1" f

Any idea what this test logged for "COc1ccc(C(=O)C2=C(C)Nc3ccc(Br)cc3S2)cc1" ? f

Which result was noted for this compound in the test: COC(=O)C1(C)CCc2c(ccc3cccc(OC)c23)C1=O (stereo not given) f

Please let me know the test result on file for "C[C@H]1CC[C@@H]2[C@@H](C)[C@H]3[C@H](C[C@H]4[C@@H]5CC=C6C[C@@H](O)CC[C@]6(C)[C@H]5CC[C@]34C)N2C1" . f

GET /call?item= CC1(C)CCN(CCOC(=O)C(c2ccccc2)C2C=CCCC2)C1 (stereo not given) returns the recorded outcome of this test. f

Lab log entry: "CC1=C/C(=C(/c2ccc(O)c(C)c2)c2ccccc2C(=O)O)C=CC1=O" — outcome as called in the assay? f

Call for entry "Cc1ccc2c(c1)-c1cc(C)ccc1C2(O)c1ccccc1" : f

Hello, I am checking results. What call was entered for "O=C(OC1=C(Br)C(=O)c2ccccc2C1=O)c1ccccc1" ? f
